SYSTEM: Fuc(a1-3)[Gal(b1-4)]GlcNAc(b1-2)Man(a1-3)[Fuc(a1-3)[Gal(b1-4)]GlcNAc(b1-2)Man(a1-6)]Man(b1-4)GlcNAc(b1-4)[Fuc(a1-6)]GlcNAc
ASSAY METHOD TEXT: glycan array binding signal (z-score within array); higher = stronger binding
MEASUREMENT PARAMETERS: glycan notation: IUPAC condensed, linker removed
The entries come from a sample that favours the strongest signals as a whole.
TEST READOUT: glycan array binding signal (z-score)
Enter the number alone.

Completed entries (count: 4):
Reported glycan array binding signal (z-score) for CD72 ectodomain (Homo sapiens), P21854 (protein) RYLQVSQQLQQTNRVLEVTNSSLRQQLRLKITQLGQSAEDLQGSRRELAQSQEALQVEQRAHQAAEGQLQACQADRQKTKETLQSEEQQRRALEQKLSNMENRLKPFFTCGSADTCCPSGWIMHQKSCFYISLTSKNWQESQKQCETLSSKLATFSEIYPQSHSYYFLNSLLPNGGSGNSYWTGLSSNKDWKLTDDTQRTRTYAQSSKCNKVHKTWSWWTLESESCRSSLPYICEMTAFRFPD was 0.575

Reported glycan array binding signal (z-score) for PNA (Arachis hypogaea), P02872 (protein) MKPFCVFLTFFLLLAASSKKVDSAETVSFNFNSFSEGNPAINFQGDVTVLSNGNIQLTNLNKVNSVGRVLYAMPVRIWSSATGNVASFLTSFSFEMKDIKDYDPADGIIFFIAPEDTQIPAGSIGGGTLGVSDTKGAGHFVGVEFDTYSNSEYNDPPTDHVGIDVNSVDSVKTVPWNSVSGAVVKVTVIYDSSTKTLSVAVTNDNGDITTIAQVVDLKAKLPERVKFGFSASGSLGGRQIHLIRSWSFTSTLITTTRRSIDNNEKKIMNMASA was -0.162

Reported glycan array binding signal (z-score) for Layilin (Mus musculus), Q8C351 (protein) MQPGAALQAMLLAVLLAKPRDSKGRLLSASDLDPRGGQLVCRGGTRRPCYKVIYFHDAFQRLNFEEAKETCMEDGGQLVSIETEDEQRLIEKFIENLLASDGDFWIGLKRLEEKQSNNTACQDLYAWTDGSTSQFRNWYVDEPSCGSEVCVVMYHQPSAPPGIGGSYMFQWNDDRCNMKNNFICKYHDDKPSTTPSIWPGGEATEPATPLLPEETQKEDTKETFKERREAALNLAYILIPSIPLFLLLVVTSAVCWVWICRRKREQTDPSTKEQHTIWPTPRQENSPNLDVYNVIRKQSEADLAEPRPDLKNISFRVCSGEAMPDDMSCDYENIAVNPSESGFVTLASMESGFVTNDIYEFSPDRMGRSKESGWVENEIYY was 1.43

Reported glycan array binding signal (z-score) for SP15308F-bth-333-19-333 (Bacteroides thetaiotaomicron) (protein) SCNNEWESEQYVQMVSFKAPVNAQGVTPIYIRYKPEGKVTYQLPLIVSGSTMNSKDLNVHVGLDLDTLDVLNVEHFGSRKELFFKPLENKYYEFPETVQIPAGECTSLLPIDFALKDLDQVDKWVLPLAIQSNDPSHNYQANPRKFYRRAMLRISPFNDYSGQYSATAYKVYFKGNEKEAIVPEYHTSYVIDDKTIFFYAGLIDIDRLDRKYYKIKFEFTEEKIDLQTRKLKISSDNEDINLVVKGQPSYTVEEEMDATRPYLKHIYVTINNLEYEFTDYTSVPGYPLEYVVKGSLTMERKINTQIPDEDQAIEW was -0.717

Okay, now this binder:
Reported glycan array binding signal (z-score) for Cohesin-hDECTIN-1 (Homo sapiens) (protein) LDITSHHHHHHDDLDAVRIKVDTVNAKPGDTVRIPVRFSGIPSKGIANCDFVYSYDPNVLEIIEIEPGDIIVDPNPDKSFDTAVYPDRKIIVFLFAEDSGTGAYAITKDGVFATIVAKVKEGAPNGLSVIKFVEVGGFANNDLVEQKTQFFDGGVNVGDTTEPATPTTPVTTPTTTDDLDAASSSPCPPNWIIYEKSCYLFSMSLNSWDGSKRQCWQLGSNLLKIDSSNELGFIVKQVSSQPDNSFWIGLSRPQTEVPWLWEDGSTFSSNLFQIRTTATQENPSPNCVWIHVSVIYDQLCSVPSYSICEKKFM was -0.51
